Numbers sourced from the Human Domainome abundance scans (Beltran et al. 2025).

B1: CD2-associated protein, residues 271 to 331; numbered along this chain, Q9Y5K6 (parent)
chain: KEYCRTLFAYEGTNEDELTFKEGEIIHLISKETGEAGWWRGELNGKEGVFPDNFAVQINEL

variants of: B1; assay: abundance fitness (aPCA) (normalised: wild type 0, dead -1); higher = more abundant; growth selection in yeast, the domain comes from the species named; details: Homo sapiens
abundance fitness overview
ASSAY_ENDPOINT: abundance fitness

>>> readout_value("G12I")
-0.887
>>> readout_value("F20E")
-0.91
>>> readout_value("T13K")
0.108
>>> readout_value("E22R")
-0.209
>>> readout_value("I58T")
-0.136
>>> readout_value("W38Y")
-0.043
>>> readout_value("L43W")
-0.605
>>> readout_value("A36W")
-0.22
>>> readout_value("A55K")
-0.92
>>> readout_value("T6H")
-0.695
>>> readout_value("I26H")
-0.537
>>> readout_value("K31I")
-0.672
>>> readout_value("N59V")
-0.349
>>> readout_value("E22I")
-0.404
>>> readout_value("T33P")
-0.242
>>> readout_value("E47C")
-0.104
>>> readout_value("I58R")
-0.417
